Test system: LoVo
Assay: SRB colorimetric assay of cell growth and viability, LoVo
Assay type: cell-based, human
Details: 48 hours exposure, SRB; read-out: LC50 LOVO
Where a SMILES comes first, the peptide text is derived from it. Bridges are numbered along the chain shown (N, C = ends). [ ]: non-standard residue; d: D form. The star is where a group is joined. d(aIle) = CC[C@H](C)[C@@H](N)C(=O)O; d(aThr) = C[C@@H](O)[C@@H](N)C(=O)O; Hexanoyl(5-Me) = CC(C)CCCC(=O)*; Orn = NCCC[C@H](N)C(=O)O; Dhb = C/C=C(\N)C(=O)O; Dha = C=C(N)C(=O)O

compound	assayed-target	CC50
C/C=C1\NC(=O)[C@H](Cc2ccc(I)cc2)NC(=O)[C@@H](C(C)C)NC(=O)[C@@H]([C@@H](C)CC)NC(=O)[C@H](NC(=O)[C@H](NC(=O)[C@H](CCCN)NC(=O)[C@H]2CCCN2C(=O)[C@H](NC(=O)[C@@H](NC(=O)[C@@H](NC(=O)[C@H](NC(=O)CC[C@@H](C)CC)C(C)C)[C@@H](C)O)C(C)C)C(C)C)[C@@H](C)CC)[C@@H](C)OC(=O)[C@H](C(C)C)NC1=O [Compound 72, [Phe(4-I)^3, (4S)-MeHex^14]-KF]	LoVo	428 nM
C=C1NC(=O)[C@H](Cc2ccccc2)NC(=O)[C@@H](C(C)C)NC(=O)[C@@H]([C@@H](C)CC)NC(=O)[C@H](NC(=O)[C@H](NC(=O)[C@H](CCCN)NC(=O)[C@H]2CCCN2C(=O)[C@H](NC(=O)[C@@H](NC(=O)[C@@H](NC(=O)[C@H](NC(=O)CCCC(C)C)C(C)C)[C@@H](C)O)C(C)C)C(C)C)[C@@H](C)CC)[C@@H](C)OC(=O)[C@H](C(C)C)NC1=O [Compound 67, [Dha^2]-KF] ({Hexanoyl(5-Me)}-[dV]TV[dV][dP][Orn][d(aIle)][d(aThr)][d(aIle)][dV]F[Dha]V; ester 8-C)	LoVo	669 nM
CC[C@H](C)[C@@H](NC(=O)[C@H](CCCN)NC(=O)[C@H]1CCCN1C(=O)[C@H](NC(=O)[C@@H](NC(=O)[C@@H](NC(=O)[C@H](NC(=O)CCCC(C)C)C(C)C)[C@@H](C)O)C(C)C)C(C)C)C(=O)N[C@H]1C(=O)N[C@H]([C@@H](C)CC)C(=O)N[C@H](C(C)C)C(=O)N[C@@H](Cc2ccccc2)C(=O)NCC(=O)N[C@@H](C(C)C)C(=O)O[C@@H]1C [Compound 65, [Gly^2]-KF] ({Hexanoyl(5-Me)}-[dV]TV[dV][dP][Orn][d(aIle)][d(aThr)][d(aIle)][dV]FGV; ester 8-C)	LoVo	3810 nM
C/C=C1\NC(=O)[C@H](Cc2c[nH]c3ccccc23)NC(=O)[C@@H](C(C)C)NC(=O)[C@@H]([C@@H](C)CC)NC(=O)[C@H](NC(=O)[C@H](NC(=O)[C@H](CCCN)NC(=O)[C@H]2CCCN2C(=O)[C@H](NC(=O)[C@@H](NC(=O)[C@@H](NC(=O)[C@H](NC(=O)CCCC(C)C)C(C)C)[C@@H](C)O)C(C)C)C(C)C)[C@@H](C)CC)[C@@H](C)OC(=O)[C@H](C(C)C)NC1=O [Compound 68, [Trp^3]-KF] ({Hexanoyl(5-Me)}-[dV]TV[dV][dP][Orn][d(aIle)][d(aThr)][d(aIle)][dV]W[Dhb]V; ester 8-C)	LoVo	2620 nM
